All figures here come from the kinase profiling compilation of Christmann-Franck et al. (2016).

Molecular target: RPS6KA5 KD1 KD2 (human)
Assay: Caliper, Mobility shift assay off-chip
Settings: compound 1.0 µM
quantity measured: inhibition (%)

Examples with answers:
{"compound": "Cn1cc(-c2cnc3ccc4ccc(CS(N)(=O)=O)cc4c(=O)c3c2)cn1", "units label": "%", "numeric readout": 4.1}
{"compound": "O=C(CCc1ccc2ccc3ncc(C4CCNCC4)cc3c(=O)c2c1)NCc1ccccn1", "units label": "%", "numeric readout": -0.9}
{"compound": "Cn1cc(-c2cnc3ccc4ccc(CS(=O)(=O)CCc5ccccn5)cc4c(=O)c3c2)cn1", "units label": "%", "numeric readout": -7.4}

a. CN(c1ccc2ccc3ncc(-c4cnn(C)c4)cc3c(=O)c2c1)S(=O)(=O)NCc1ccccn1
b. Cn1cc(-c2cnc3ccc4ccc(CS(=O)(=O)NCC5CCCCN5)cc4c(=O)c3c2)cn1 (stereo not given)
INPUT: Between item a and item b , which reported inhibition is smaller? Mark your answer with the label of the selected entry.
OUTPUT: b
(b: -0.4%, a: 8.1%)

###

Biological target: FGFR4 (human) (UniProt P22455)
Sequence (P22455 whole entry, looked up): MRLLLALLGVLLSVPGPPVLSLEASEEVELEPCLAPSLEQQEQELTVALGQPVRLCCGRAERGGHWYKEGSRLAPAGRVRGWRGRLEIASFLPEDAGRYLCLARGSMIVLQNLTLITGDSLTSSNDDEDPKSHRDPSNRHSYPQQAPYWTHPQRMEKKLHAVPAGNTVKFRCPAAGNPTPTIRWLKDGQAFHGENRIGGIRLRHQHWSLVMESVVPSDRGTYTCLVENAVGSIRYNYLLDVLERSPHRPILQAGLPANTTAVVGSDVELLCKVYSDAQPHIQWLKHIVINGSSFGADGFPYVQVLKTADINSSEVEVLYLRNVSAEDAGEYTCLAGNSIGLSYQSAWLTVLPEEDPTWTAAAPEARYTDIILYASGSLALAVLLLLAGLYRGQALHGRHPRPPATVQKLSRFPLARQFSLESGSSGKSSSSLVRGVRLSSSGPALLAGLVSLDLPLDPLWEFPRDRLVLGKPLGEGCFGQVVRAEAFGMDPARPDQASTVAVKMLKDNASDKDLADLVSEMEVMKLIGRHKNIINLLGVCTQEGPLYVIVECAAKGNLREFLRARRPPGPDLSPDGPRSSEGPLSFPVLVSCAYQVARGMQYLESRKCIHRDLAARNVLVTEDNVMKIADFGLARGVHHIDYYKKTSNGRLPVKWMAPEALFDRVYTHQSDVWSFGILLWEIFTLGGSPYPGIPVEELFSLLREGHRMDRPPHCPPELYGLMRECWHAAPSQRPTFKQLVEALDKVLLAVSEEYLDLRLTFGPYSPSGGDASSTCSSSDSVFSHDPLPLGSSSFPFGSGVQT
Experiment: Caliper, Mobility shift assay off-chip
Details: compound 0.1 µM
quantity measured: inhibition (%)

Examples with answers:
{"compound": "CN(c1ccc2ccc3ncc(-c4cnn(C)c4)cc3c(=O)c2c1)S(=O)(=O)NCc1ccccn1", "units label": "%", "inhibition": 8.9}
{"compound": "Cn1cc(-c2cnc3ccc4ccc(CS(=O)(=O)NCC5CCCCN5)cc4c(=O)c3c2)cn1 (configuration not stated)", "units label": "%", "inhibition": -8.7}
{"compound": "Cn1cc(-c2cnc3ccc4ccc(CS(=O)(=O)CCc5ccccn5)cc4c(=O)c3c2)cn1", "units label": "%", "inhibition": -0.6}
{"compound": "O=c1c2cc(CS(=O)(=O)NCc3ccccn3)ccc2ccc2ncc(C3CCNCC3)cc12", "units label": "%", "inhibition": -18.4}

A. Cn1cc(-c2cnc3ccc4ccc(CS(N)(=O)=O)cc4c(=O)c3c2)cn1
B. Cn1cc(-c2cnc3ccc4ccc(CS(=O)(=O)NC5CCCCC5)cc4c(=O)c3c2)cn1
INPUT: Field: entry with larger inhibition (options A / B ). Mark your answer with the label of the selected entry.
OUTPUT: A

###

Biological target: KDR (human) (UniProt P35968)
Sequence (P35968 whole entry, looked up): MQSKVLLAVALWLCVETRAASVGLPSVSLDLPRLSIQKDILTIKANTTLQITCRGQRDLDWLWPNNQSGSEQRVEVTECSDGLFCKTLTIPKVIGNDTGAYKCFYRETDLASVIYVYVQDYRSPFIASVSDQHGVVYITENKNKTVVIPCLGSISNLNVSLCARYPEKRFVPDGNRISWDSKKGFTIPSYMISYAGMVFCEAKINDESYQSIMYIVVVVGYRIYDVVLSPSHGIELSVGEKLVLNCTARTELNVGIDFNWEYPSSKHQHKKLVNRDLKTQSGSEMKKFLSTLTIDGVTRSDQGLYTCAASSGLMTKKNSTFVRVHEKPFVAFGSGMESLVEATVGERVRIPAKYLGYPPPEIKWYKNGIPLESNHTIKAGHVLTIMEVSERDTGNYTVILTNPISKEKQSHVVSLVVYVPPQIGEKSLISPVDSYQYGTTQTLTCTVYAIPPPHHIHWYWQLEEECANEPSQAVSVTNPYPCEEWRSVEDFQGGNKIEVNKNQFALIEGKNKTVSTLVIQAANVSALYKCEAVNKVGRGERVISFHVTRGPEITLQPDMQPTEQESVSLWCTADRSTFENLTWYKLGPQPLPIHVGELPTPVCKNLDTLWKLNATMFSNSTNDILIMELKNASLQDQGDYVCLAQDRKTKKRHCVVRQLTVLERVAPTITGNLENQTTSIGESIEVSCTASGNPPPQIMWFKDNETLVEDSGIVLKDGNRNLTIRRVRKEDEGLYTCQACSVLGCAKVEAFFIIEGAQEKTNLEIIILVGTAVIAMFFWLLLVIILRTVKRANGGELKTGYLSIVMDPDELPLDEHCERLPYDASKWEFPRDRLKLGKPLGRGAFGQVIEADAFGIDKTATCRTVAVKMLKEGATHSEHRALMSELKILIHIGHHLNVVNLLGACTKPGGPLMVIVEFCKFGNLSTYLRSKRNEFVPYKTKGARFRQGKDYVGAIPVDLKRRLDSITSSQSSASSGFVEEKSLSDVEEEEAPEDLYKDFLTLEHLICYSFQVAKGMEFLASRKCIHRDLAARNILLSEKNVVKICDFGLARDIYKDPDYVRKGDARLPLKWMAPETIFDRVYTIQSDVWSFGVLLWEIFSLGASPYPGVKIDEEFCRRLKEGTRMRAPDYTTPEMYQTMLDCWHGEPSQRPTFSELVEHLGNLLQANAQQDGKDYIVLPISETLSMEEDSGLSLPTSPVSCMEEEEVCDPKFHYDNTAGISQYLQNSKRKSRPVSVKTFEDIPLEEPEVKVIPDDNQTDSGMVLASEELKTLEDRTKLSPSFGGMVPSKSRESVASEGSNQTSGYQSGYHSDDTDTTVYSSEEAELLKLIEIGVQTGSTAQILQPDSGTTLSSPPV
Test: Caliper, Mobility shift assay off-chip
Conditions: compound 1.0 µM
quantity measured: inhibition (%)

{"compound": "Cn1cc(-c2cnc3ccc4ccc(CS(=O)(=O)CCc5ccccn5)cc4c(=O)c3c2)cn1", "quantity measured": "inhibition", "numeric readout": 28.2}
{"compound": "Cn1cc(-c2cnc3ccc4ccc(CS(N)(=O)=O)cc4c(=O)c3c2)cn1", "quantity measured": "inhibition", "numeric readout": 64}
{"compound": "CN(c1ccc2ccc3ncc(-c4cnn(C)c4)cc3c(=O)c2c1)S(=O)(=O)NCc1ccccn1", "quantity measured": "inhibition", "numeric readout": 93.1}

I. Cn1cc(-c2cnc3ccc4ccc(CS(=O)(=O)NCC5CCCCN5)cc4c(=O)c3c2)cn1 (stereo not given)
II. O=C(CCc1ccc2ccc3ncc(C4CCNCC4)cc3c(=O)c2c1)NCc1ccccn1
INPUT: Between item I and item II , which reported inhibition is smaller? Mark your answer with the label of the selected entry.
OUTPUT: II
(II: 16.8%, I: 41.8%)

###

Biological target: ROCK2 (human) (UniProt O75116)
Sequence (O75116 whole entry, looked up): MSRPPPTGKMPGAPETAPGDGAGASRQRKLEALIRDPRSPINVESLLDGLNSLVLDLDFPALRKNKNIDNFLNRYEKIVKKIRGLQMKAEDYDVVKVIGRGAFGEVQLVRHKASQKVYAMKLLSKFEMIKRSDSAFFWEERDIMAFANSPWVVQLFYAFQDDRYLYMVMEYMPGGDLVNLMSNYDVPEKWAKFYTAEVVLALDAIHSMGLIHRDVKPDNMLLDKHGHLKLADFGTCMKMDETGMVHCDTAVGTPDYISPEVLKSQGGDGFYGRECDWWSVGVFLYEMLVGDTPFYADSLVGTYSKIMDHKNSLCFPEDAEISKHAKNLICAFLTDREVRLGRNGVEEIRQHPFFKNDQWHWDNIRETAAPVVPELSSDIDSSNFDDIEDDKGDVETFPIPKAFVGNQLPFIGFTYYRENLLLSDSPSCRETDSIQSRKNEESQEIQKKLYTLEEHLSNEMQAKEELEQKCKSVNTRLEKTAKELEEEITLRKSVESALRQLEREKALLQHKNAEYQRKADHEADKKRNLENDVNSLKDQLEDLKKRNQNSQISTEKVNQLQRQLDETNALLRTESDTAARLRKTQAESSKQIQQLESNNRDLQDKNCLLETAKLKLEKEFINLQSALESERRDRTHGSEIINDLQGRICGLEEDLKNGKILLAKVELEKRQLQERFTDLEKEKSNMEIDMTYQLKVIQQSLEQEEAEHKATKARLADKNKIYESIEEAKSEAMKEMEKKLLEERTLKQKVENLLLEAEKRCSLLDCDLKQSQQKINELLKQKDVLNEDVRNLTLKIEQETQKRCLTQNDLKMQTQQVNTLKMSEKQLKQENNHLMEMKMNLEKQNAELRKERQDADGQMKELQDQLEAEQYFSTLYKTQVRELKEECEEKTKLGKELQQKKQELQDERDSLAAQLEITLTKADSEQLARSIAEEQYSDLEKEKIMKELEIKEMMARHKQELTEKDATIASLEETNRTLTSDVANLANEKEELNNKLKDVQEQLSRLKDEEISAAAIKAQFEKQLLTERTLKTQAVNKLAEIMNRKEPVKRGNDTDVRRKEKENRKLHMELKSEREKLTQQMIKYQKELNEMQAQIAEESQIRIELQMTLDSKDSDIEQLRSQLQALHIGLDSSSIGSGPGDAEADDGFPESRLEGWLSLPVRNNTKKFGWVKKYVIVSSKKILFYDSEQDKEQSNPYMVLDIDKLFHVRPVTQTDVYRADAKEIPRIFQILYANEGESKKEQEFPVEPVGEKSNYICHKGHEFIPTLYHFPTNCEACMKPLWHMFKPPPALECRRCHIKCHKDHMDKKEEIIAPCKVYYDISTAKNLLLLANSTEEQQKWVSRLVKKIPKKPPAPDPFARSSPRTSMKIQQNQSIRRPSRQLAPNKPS
Test: Caliper, Mobility shift assay off-chip
Conditions: compound 0.1 µM
quantity measured: inhibition (%)

Examples with answers:
{"compound": "Cn1cc(-c2cnc3ccc4ccc(CS(=O)(=O)NCC5CCCCN5)cc4c(=O)c3c2)cn1 (configuration not stated)", "numeric readout": 3.6}
{"compound": "Cn1cc(-c2cnc3ccc4ccc(CS(=O)(=O)CCc5ccccn5)cc4c(=O)c3c2)cn1", "numeric readout": -6.7}
{"compound": "O=C(CCc1ccc2ccc3ncc(C4CCNCC4)cc3c(=O)c2c1)NCc1ccccn1", "numeric readout": -2.6}
{"compound": "Cn1cc(-c2cnc3ccc4ccc(CS(N)(=O)=O)cc4c(=O)c3c2)cn1", "numeric readout": 3}
{"compound": "CN(c1ccc2ccc3ncc(-c4cnn(C)c4)cc3c(=O)c2c1)S(=O)(=O)NCc1ccccn1", "numeric readout": 21.3}

1. Cn1cc(-c2cnc3ccc4ccc(CS(=O)(=O)NC5CCCCC5)cc4c(=O)c3c2)cn1
2. O=c1c2cc(CS(=O)(=O)NCc3ccccn3)ccc2ccc2ncc(C3CCNCC3)cc12
INPUT: Field: entry with larger inhibition (options 1 / 2 ). Mark your answer with the label of the selected entry.
OUTPUT: 1
(1: 21.2%, 2: 8.4%)

###

Target: PRKCA (human)
Assay: Caliper, Mobility shift assay off-chip
Settings: compound 0.1 µM
quantity measured: inhibition (%)

Examples with answers:
{"compound": "O=C(CCc1ccc2ccc3ncc(C4CCNCC4)cc3c(=O)c2c1)NCc1ccccn1", "system name": "PRKCA (human)", "units label": "%", "numeric readout": -9.4}
{"compound": "Cn1cc(-c2cnc3ccc4ccc(CS(=O)(=O)CCc5ccccn5)cc4c(=O)c3c2)cn1", "system name": "PRKCA (human)", "units label": "%", "numeric readout": 21.9}

a. CN(c1ccc2ccc3ncc(-c4cnn(C)c4)cc3c(=O)c2c1)S(=O)(=O)NCc1ccccn1
b. O=c1c2cc(CS(=O)(=O)NCc3ccccn3)ccc2ccc2ncc(C3CCNCC3)cc12
c. Cn1cc(-c2cnc3ccc4ccc(CS(=O)(=O)NC5CCCCC5)cc4c(=O)c3c2)cn1
d. Cn1cc(-c2cnc3ccc4ccc(CS(N)(=O)=O)cc4c(=O)c3c2)cn1
e. Cn1cc(-c2cnc3ccc4ccc(CS(=O)(=O)NCC5CCCCN5)cc4c(=O)c3c2)cn1 (configuration not stated)
INPUT: Number of compounds to sort: 5. Sort criterion: inhibition, ascending. # answer = labels listed in requested order
OUTPUT: e, a, b, d, c

###

Molecular target: KDR (human)
Assay: Caliper, Mobility shift assay off-chip
Settings: compound 0.1 µM
quantity measured: inhibition (%)

{"compound": "O=C(CCc1ccc2ccc3ncc(C4CCNCC4)cc3c(=O)c2c1)NCc1ccccn1", "quantity measured": "inhibition", "numeric readout": 4.9}
{"compound": "Cn1cc(-c2cnc3ccc4ccc(CS(=O)(=O)NC5CCCCC5)cc4c(=O)c3c2)cn1", "quantity measured": "inhibition", "numeric readout": -10}
{"compound": "Cn1cc(-c2cnc3ccc4ccc(CS(N)(=O)=O)cc4c(=O)c3c2)cn1", "quantity measured": "inhibition", "numeric readout": 32.6}
{"compound": "Cn1cc(-c2cnc3ccc4ccc(CS(=O)(=O)NCC5CCCCN5)cc4c(=O)c3c2)cn1 (configuration not stated)", "quantity measured": "inhibition", "numeric readout": -5.2}
{"compound": "O=c1c2cc(CS(=O)(=O)NCc3ccccn3)ccc2ccc2ncc(C3CCNCC3)cc12", "quantity measured": "inhibition", "numeric readout": 4.1}

I. CN(c1ccc2ccc3ncc(-c4cnn(C)c4)cc3c(=O)c2c1)S(=O)(=O)NCc1ccccn1
II. Cn1cc(-c2cnc3ccc4ccc(CS(=O)(=O)CCc5ccccn5)cc4c(=O)c3c2)cn1
INPUT: Between item I and item II , which reported inhibition is smaller? Mark your answer with the label of the selected entry.
OUTPUT: II
(II: 7.9%, I: 33.2%)

###

Biological target: RPS6KB1 (human) (UniProt P23443)
Sequence (P23443 whole entry, looked up): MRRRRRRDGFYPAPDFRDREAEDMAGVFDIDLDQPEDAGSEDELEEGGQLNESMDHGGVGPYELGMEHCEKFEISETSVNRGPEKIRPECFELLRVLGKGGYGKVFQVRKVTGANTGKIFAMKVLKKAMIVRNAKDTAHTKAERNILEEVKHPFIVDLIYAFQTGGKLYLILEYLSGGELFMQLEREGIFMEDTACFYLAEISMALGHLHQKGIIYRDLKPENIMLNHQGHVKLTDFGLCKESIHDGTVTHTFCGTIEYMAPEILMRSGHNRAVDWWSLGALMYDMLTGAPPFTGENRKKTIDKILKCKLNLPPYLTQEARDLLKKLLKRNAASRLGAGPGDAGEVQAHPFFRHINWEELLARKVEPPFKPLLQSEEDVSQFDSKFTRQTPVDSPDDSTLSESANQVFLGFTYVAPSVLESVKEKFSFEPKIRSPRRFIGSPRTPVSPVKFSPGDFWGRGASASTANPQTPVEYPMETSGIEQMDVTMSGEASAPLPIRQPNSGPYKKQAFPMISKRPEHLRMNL
Assay: Caliper, Mobility shift assay off-chip
Conditions: compound 0.1 µM
quantity measured: inhibition (%)

{"compound": "O=c1c2cc(CS(=O)(=O)NCc3ccccn3)ccc2ccc2ncc(C3CCNCC3)cc12", "system name": "RPS6KB1 (human) (UniProt P23443)", "inhibition [%]": -1.3}
{"compound": "Cn1cc(-c2cnc3ccc4ccc(CS(=O)(=O)NC5CCCCC5)cc4c(=O)c3c2)cn1", "system name": "RPS6KB1 (human) (UniProt P23443)", "inhibition [%]": 4.2}
{"compound": "CN(c1ccc2ccc3ncc(-c4cnn(C)c4)cc3c(=O)c2c1)S(=O)(=O)NCc1ccccn1", "system name": "RPS6KB1 (human) (UniProt P23443)", "inhibition [%]": -1}
{"compound": "O=C(CCc1ccc2ccc3ncc(C4CCNCC4)cc3c(=O)c2c1)NCc1ccccn1", "system name": "RPS6KB1 (human) (UniProt P23443)", "inhibition [%]": 10.9}

1. Cn1cc(-c2cnc3ccc4ccc(CS(N)(=O)=O)cc4c(=O)c3c2)cn1
2. Cn1cc(-c2cnc3ccc4ccc(CS(=O)(=O)CCc5ccccn5)cc4c(=O)c3c2)cn1
3. Cn1cc(-c2cnc3ccc4ccc(CS(=O)(=O)NCC5CCCCN5)cc4c(=O)c3c2)cn1 (configuration not stated)
INPUT: Number of compounds to sort: 3. Sort criterion: inhibition, ascending. # answer = labels listed in requested order
OUTPUT: 2, 3, 1

###

Molecular target: PRKACA (human)
Experiment: Caliper, Mobility shift assay off-chip
Conditions: compound 1.0 µM
quantity measured: inhibition (%)

Examples with answers:
{"molecule": "O=C(CCc1ccc2ccc3ncc(C4CCNCC4)cc3c(=O)c2c1)NCc1ccccn1", "units label": "%", "inhibition": 4.8}
{"molecule": "Cn1cc(-c2cnc3ccc4ccc(CS(N)(=O)=O)cc4c(=O)c3c2)cn1", "units label": "%", "inhibition": -1.1}

P. Cn1cc(-c2cnc3ccc4ccc(CS(=O)(=O)CCc5ccccn5)cc4c(=O)c3c2)cn1
Q. Cn1cc(-c2cnc3ccc4ccc(CS(=O)(=O)NCC5CCCCN5)cc4c(=O)c3c2)cn1 (stereo not given)
R. CN(c1ccc2ccc3ncc(-c4cnn(C)c4)cc3c(=O)c2c1)S(=O)(=O)NCc1ccccn1
INPUT: Number of molecules to sort: 3. Sort criterion: inhibition, ascending. # answer = labels listed in requested order
OUTPUT: R, Q, P
